# Test system: Streptococcus agalactiae
# test description: MIC, liquid culture dilution
# Type: cell-based
recorded metric: Minimal inhibitory concentration (MIC) (ppm)
The reply should be a number in ppm, with the unit left off.

| molecule | system | Minimal inhibitory concentration (MIC) [ppm] |
| --- | --- | --- |
| NCC(=O)[O-].NCC(=O)[O-].O.[Cu+2] [Copper (H2O) bis-glycinate] | Streptococcus agalactiae | 171 |
| N.N.NC(CCC(=O)O)C(=O)[O-].NC(CCC(=O)O)C(=O)[O-].[Cu+2] (stereo not drawn) [Cu diammine bis-glutamate] | Streptococcus agalactiae | 24 |

# input for lookup
Query the reported Minimal inhibitory concentration (MIC) for Streptococcus agalactiae; item: [NH2][Zn]([NH2])([O]C(=O)C(O)CC(=O)O)[O]C(=O)C(O)CC(=O)O (stereo not drawn) [Zn diammine bis-malate, Zn diammonium malate] 20
